src = patent US8143243B2

- assayed_target: HCV NS5B (Hepatitis C virus genotype 1b, UniProt Q9WMX2)
- Construct: The protein was expressed with an 18 amino acid C-terminal truncation to enhance the solubility; made in house; host or cells: E. coli BL21 (DE3)
- Sequence (Q9WMX2 2420-2992): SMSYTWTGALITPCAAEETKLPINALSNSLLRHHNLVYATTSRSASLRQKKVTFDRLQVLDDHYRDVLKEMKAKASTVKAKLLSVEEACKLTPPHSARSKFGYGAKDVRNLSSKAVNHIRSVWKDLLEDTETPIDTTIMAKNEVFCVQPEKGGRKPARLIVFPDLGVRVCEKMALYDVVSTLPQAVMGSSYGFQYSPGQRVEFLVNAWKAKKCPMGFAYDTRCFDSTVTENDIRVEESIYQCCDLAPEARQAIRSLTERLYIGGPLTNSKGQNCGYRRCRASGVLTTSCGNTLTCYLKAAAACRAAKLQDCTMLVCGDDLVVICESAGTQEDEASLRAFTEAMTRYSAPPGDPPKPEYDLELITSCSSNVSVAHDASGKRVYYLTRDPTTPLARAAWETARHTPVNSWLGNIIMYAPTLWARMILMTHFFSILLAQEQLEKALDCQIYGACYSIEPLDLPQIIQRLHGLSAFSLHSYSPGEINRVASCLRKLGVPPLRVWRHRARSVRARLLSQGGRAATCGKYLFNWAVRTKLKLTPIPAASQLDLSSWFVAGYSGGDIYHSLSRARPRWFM
- test: HCV NS5B RdRp enzyme assay (standard / modified)
- Assay type: biochemical
- condition_context: HCV RdRp genotype 1b enzyme; read-out: IC50
readout_kind: IC50

Lookup: IC50 lookup needed for COc1ccc2c(c1)C=C(c1c(C(=O)N3C[C@@H](C)N(C)[C@@H](C)C3)c(C)nn1C)Cn1c-2c(C2CCCCC2)c2ccc(C(=O)NS(=O)(=O)C(C)C)cc21 , thanks.
Found: 1 to 500 nM

Lookup: Request the reported IC50 associated with COC(=O)c1c(C)nn(C)c1C1=Cc2cc(OC)ccc2-c2c(C3CCCCC3)c3ccc(C(=O)NS(=O)(=O)N(C)C)cc3n2C1
Found: 1 to 500 nM

Lookup: Would you mind telling me what IC50 value was observed for COc1ccc2c(c1)C=C(c1c(C(=O)N3CCCC(N(C)C)C3)cnn1C)Cn1c-2c(C2CCCCC2)c2ccc(C(=O)NS(=O)(=O)N3CCOCC3)cc21 (stereo not drawn) ?
Found: 1 to 500 nM
